# procedure-text: AUC (0 to t) in Sprague-Dawley rat at 2 mg/kg, iv measured upto 24 hrs by LC-MS/MS analysis
# Assay type: ADME, organism-based
# Design: route intravenous, dose 2 mg/kg, time <=24
# condition-info: in vivo
readout-kind: AUC(0-t) at 24 h (µg·h/mL)

P = CCCCCCOC(C)c1c(C)c2cc3nc(c(CC(=O)N[C@@H](CC(=O)O)C(=O)O)c4[nH]c(cc5nc(cc1[nH]2)C(C)=C5CC)c(C)c4C(=O)O)[C@@H](CCC(=O)O)[C@@H]3C (some centres not stated)
Q = CCCCCCOC(C)c1c(C)c2cc3nc(c(CC(=O)OC)c4[nH]c(cc5nc(cc1[nH]2)C(C)=C5CC)c(C)c4C(=O)N[C@@H](CC(=O)O)C(=O)O)[C@@H](CCC(=O)O)[C@@H]3C (some centres not stated)
Data request: Compare P and Q and name the one whose reported AUC(0-t) at 24 h is smaller. # answer = label of selected item
Data returned: Q
(Q: 3.72 µg·h/mL, P: 73.1 µg·h/mL)

====

# procedure-text: Apparent clearance in Sprague-Dawley rat at 2 mg/kg, iv measured upto 24 hrs by LC-MS/MS analysis
# Assay type: ADME, organism-based
# condition-info: in vivo, read-out: CL(app) (converted)
readout-kind: clearance (mL/min/kg)

a = CCCCCCOC(C)c1c(C)c2cc3nc(c(CC(=O)N[C@@H](CC(=O)O)C(=O)O)c4[nH]c(cc5nc(cc1[nH]2)C(C)=C5CC)c(C)c4C(=O)O)[C@@H](CCC(=O)O)[C@@H]3C (some centres not stated)
b = CCCCCCOC(C)c1c(C)c2cc3nc(c(CC(=O)OC)c4[nH]c(cc5nc(cc1[nH]2)C(C)=C5CC)c(C)c4C(=O)N[C@@H](CC(=O)O)C(=O)O)[C@@H](CCC(=O)O)[C@@H]3C (some centres not stated)
Data request: Compare a and b and name the one whose reported clearance is smaller. # answer = label of selected item
Data returned: a

====

# procedure-text: AUC (0 to infinity) in Sprague-Dawley rat at 2 mg/kg, iv measured upto 24 hrs by LC-MS/MS analysis
# Assay type: ADME, organism-based
# Design: route intravenous, dose 2 mg/kg, time <=24
# condition-info: in vivo
readout-kind: AUC(0-inf) (ng·h/mL)

1 = CCCCCCOC(C)c1c(C)c2cc3nc(c(CC(=O)OC)c4[nH]c(cc5nc(cc1[nH]2)C(C)=C5CC)c(C)c4C(=O)N[C@@H](CC(=O)O)C(=O)O)[C@@H](CCC(=O)O)[C@@H]3C (some centres not stated)
2 = CCCCCCOC(C)c1c(C)c2cc3nc(c(CC(=O)N[C@@H](CC(=O)O)C(=O)O)c4[nH]c(cc5nc(cc1[nH]2)C(C)=C5CC)c(C)c4C(=O)O)[C@@H](CCC(=O)O)[C@@H]3C (some centres not stated)
Data request: Could you point out whether the larger AUC(0-inf) belongs to 1 or to 2 ? # answer = label of selected item
Data returned: 2

====

# procedure-text: MRT (0 to infinity) in Sprague-Dawley rat at 2 mg/kg, iv measured upto 24 hrs by LC-MS/MS analysis
# Format: ADME, organism-based
# condition-info: in vivo
readout-kind: MRT inf (h)

a = CCCCCCOC(C)c1c(C)c2cc3nc(c(CC(=O)N[C@@H](CC(=O)O)C(=O)O)c4[nH]c(cc5nc(cc1[nH]2)C(C)=C5CC)c(C)c4C(=O)O)[C@@H](CCC(=O)O)[C@@H]3C (some centres not stated)
b = CCCCCCOC(C)c1c(C)c2cc3nc(c(CC(=O)OC)c4[nH]c(cc5nc(cc1[nH]2)C(C)=C5CC)c(C)c4C(=O)N[C@@H](CC(=O)O)C(=O)O)[C@@H](CCC(=O)O)[C@@H]3C (some centres not stated)
Data request: Could you point out whether the larger MRT inf belongs to a or to b ? # answer = label of selected item
Data returned: a
(a: 4.53 h, b: 0.33 h)

====

# procedure-text: Apparent volume of distribution in Sprague-Dawley rat at 2 mg/kg, iv measured upto 24 hrs by LC-MS/MS analysis
# Format: ADME, organism-based
# condition-info: in vivo, read-out: Vz
readout-kind: Vd (L/kg)

I = CCCCCCOC(C)c1c(C)c2cc3nc(c(CC(=O)N[C@@H](CC(=O)O)C(=O)O)c4[nH]c(cc5nc(cc1[nH]2)C(C)=C5CC)c(C)c4C(=O)O)[C@@H](CCC(=O)O)[C@@H]3C (some centres not stated)
II = CCCCCCOC(C)c1c(C)c2cc3nc(c(CC(=O)OC)c4[nH]c(cc5nc(cc1[nH]2)C(C)=C5CC)c(C)c4C(=O)N[C@@H](CC(=O)O)C(=O)O)[C@@H](CCC(=O)O)[C@@H]3C (some centres not stated)
Data request: Could you point out whether the larger Vd belongs to I or to II ? # answer = label of selected item
Data returned: II
(II: 1.7 L/kg, I: 0.262 L/kg)

====

# procedure-text: Initial concentration in Sprague-Dawley rat at 2 mg/kg, iv measured upto 24 hrs by LC-MS/MS analysis
# Assay type: ADME, organism-based
# condition-info: in vivo
readout-kind: C0 at 24 h (ng/mL)

CCCCCCOC(C)c1c(C)c2cc3nc(c(CC(=O)OC)c4[nH]c(cc5nc(cc1[nH]2)C(C)=C5CC)c(C)c4C(=O)N[C@@H](CC(=O)O)C(=O)O)[C@@H](CCC(=O)O)[C@@H]3C (some centres not stated) : 32200
CCCCCCOC(C)c1c(C)c2cc3nc(c(CC(=O)N[C@@H](CC(=O)O)C(=O)O)c4[nH]c(cc5nc(cc1[nH]2)C(C)=C5CC)c(C)c4C(=O)O)[C@@H](CCC(=O)O)[C@@H]3C (some centres not stated) : 38700

====

# procedure-text: Terminal half life in Sprague-Dawley rat at 2 mg/kg, iv measured upto 24 hrs by LC-MS/MS analysis
# Type: ADME, organism-based
# condition-info: in vivo, read-out: beta t1/2 (converted)
readout-kind: half-life (h)

A = CCCCCCOC(C)c1c(C)c2cc3nc(c(CC(=O)N[C@@H](CC(=O)O)C(=O)O)c4[nH]c(cc5nc(cc1[nH]2)C(C)=C5CC)c(C)c4C(=O)O)[C@@H](CCC(=O)O)[C@@H]3C (some centres not stated)
B = CCCCCCOC(C)c1c(C)c2cc3nc(c(CC(=O)OC)c4[nH]c(cc5nc(cc1[nH]2)C(C)=C5CC)c(C)c4C(=O)N[C@@H](CC(=O)O)C(=O)O)[C@@H](CCC(=O)O)[C@@H]3C (some centres not stated)
Data request: Could you point out whether the larger half-life belongs to A or to B ? # answer = label of selected item
Data returned: A
(A: 5.55 h, B: 1.96 h)
